# TARGET_OR_TEST_SYSTEM: T1, cynomolgus monkey IL-2Rγ/CD132 subunit (cynomolgus monkey, UniProt A0A2K5VGJ6 23-262)
# T1 construct: also called Cyno IL-2R subunit
# T1 sequence: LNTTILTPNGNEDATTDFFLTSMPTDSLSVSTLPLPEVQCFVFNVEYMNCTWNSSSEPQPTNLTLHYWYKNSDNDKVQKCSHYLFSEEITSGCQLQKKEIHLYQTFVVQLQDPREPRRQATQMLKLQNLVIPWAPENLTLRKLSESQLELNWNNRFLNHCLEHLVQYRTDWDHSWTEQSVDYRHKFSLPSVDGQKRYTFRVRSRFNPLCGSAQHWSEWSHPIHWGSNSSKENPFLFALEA
# PROTOCOL: ELISA, bivalent VHH-hFc
Overview of reported EC50 across a group of binders:
Quick note: give the figure in nM, leave out the unit.

# annotated cases, reported EC50 shown
38-MP07A11 VHH-hFc, monospecific bivalent (Fc fusion, IgG1 Fc LALA-PG; not shown: human IgG1 CH2 and CH3 domains (Fc)) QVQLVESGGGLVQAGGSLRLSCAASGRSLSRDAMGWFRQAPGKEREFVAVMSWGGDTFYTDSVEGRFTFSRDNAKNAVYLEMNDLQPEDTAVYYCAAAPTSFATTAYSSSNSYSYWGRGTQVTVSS : 0.133
27-MP04G01 VHH-hFc, monospecific bivalent (Fc fusion, IgG1 Fc LALA-PG; not shown: human IgG1 CH2 and CH3 domains (Fc)) QVQLVESGGGLVQAGGSLTLSCAAPGRTFGTDVVGWFRQAPGKEREFVASISRSGDGIYYDDSVKGRFTISRNNAWNTVNLQMNSLKVEDTAVYYCAAGDGWSTYDYWGQGTQVTVSS : 0.147
28-MP04D02 VHH-hFc, monospecific bivalent (Fc fusion, IgG1 Fc LALA-PG; also called clone 28; not shown: human IgG1 CH2 and CH3 domains (Fc)) QVQLVESGGGLVQAGGSLRLSCAASGRTLSRYAMGWFRQAPGKEREFVTANSWGGDTYYADSVQGRFTFSRDNAKNTVYLQMNSLQPEDTAVYYCAAAPTSFATTAYSGSNSYAYWGQGTQVTVSS : 0.113
29-MP04H02 VHH-hFc, monospecific bivalent (Fc fusion, IgG1 Fc LALA-PG; not shown: human IgG1 CH2 and CH3 domains (Fc)) QVQLVESGGGLVQAGGSLRLACVASGLTFDNYYMGWFRQAPGKEREFVAGIIWNGDHTAYADSIKGRFTISRDNAKNTAYLRMNSLKPEDTAVYYCAATFWIERATTPDIGQYAYWGQGTQVTVSS : 0.26
36-MP07F02 VHH-hFc, monospecific bivalent (Fc fusion, IgG1 Fc LALA-PG; not shown: human IgG1 CH2 and CH3 domains (Fc)) QVQLVESGGGLVQAGGSLRLSCAASGRTLSRYAMGWFRQAPGSEREFVAASSWGGDTFYADSVEGRFTFSRDNAKNAVYLQMNSLQPEDTAAYYCAAAPTSFPTTAYSSSNSYAYWGQGTQVTVSS : 0.121
34-MP04A12 VHH-hFc, monospecific bivalent (Fc fusion, IgG1 Fc LALA-PG; not shown: human IgG1 CH2 and CH3 domains (Fc)) QVQLVESGGGLVQAGSSLRLSCAASGRTLSRLAMGWFRQAPGKEREFVAVNSWGGDTFYADSVEGRFTYSRDNAKSAVYLQMNSLQPEDTAVYYCAAAPTSFATTAYSSSNSYAYWGQGAQVTVSS : 0.112

Exam item: Entry 37-MP07F09 VHH-hFc, monospecific bivalent (Fc fusion, IgG1 Fc LALA-PG; not shown: human IgG1 CH2 and CH3 domains (Fc)) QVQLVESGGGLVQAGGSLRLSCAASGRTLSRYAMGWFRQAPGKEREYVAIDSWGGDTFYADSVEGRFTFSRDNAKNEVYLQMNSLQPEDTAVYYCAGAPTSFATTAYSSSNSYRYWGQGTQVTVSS has what EC50?
Marked response: 0.141
